tested on: NCI-H522 lung; experiment: NCI tumour cell line growth inhibition, 48 h
TGI listing for selected compounds.

Completed entries (count: 4):
[
  {
    "Compound": "CCOC(=O)C(NCc1cccc(C(F)(F)F)c1)(NC(=O)CC)C(F)(F)F (stereo not given)",
    "TGI": "> 100 µM"
  },
  {
    "Compound": "CCC1C(=O)C(O)[C@H]2[C@@H]3C(O)CC4=CC(=O)CC[C@]4(C)[C@H]3CC[C@]12C (stereo not given in full)",
    "TGI": "> 50 µM"
  },
  {
    "Compound": "Nc1ncnc2c1ncn2[C@H]1CC[C@@H](NO)C1",
    "TGI": "> 100 µM"
  },
  {
    "Compound": "COc1cc(N(Cc2ccc3nc(OC)c(OC)nc3c2)Cc2ccc3nc(OC)c(OC)nc3c2)cc(OC)c1OC",
    "TGI": "> 50 µM"
  }
]

Next compound, please.
Requested field: TGI. Item: `O=c1oc2ccc(-n3c(=O)c4ccccc4c4ccccc4c3=O)cc2c2ccccc12`
> 100 µM

Origin of values: PubChem BioAssay (NCI)
